Study System: T1, dimeric hActRIIB (human, UniProt Q13705 19-134)
T1 construct: also called ActRIIB DIMER; ActRIIB dimer
T1 sequence (Q13705 19-134): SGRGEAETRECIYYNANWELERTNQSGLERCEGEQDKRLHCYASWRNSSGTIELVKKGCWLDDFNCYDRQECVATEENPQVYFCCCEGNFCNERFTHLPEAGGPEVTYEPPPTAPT
Protocol Description: SPR (Biacore), 37 C, antibody captured on anti-hFc IgG chip, dimeric ActRIIB injected, 1:1 model
Measure: koff (s⁻¹)
Number only, in s⁻¹; omit the unit.

Specify koff for M01 (antibody, V domains shown, Optimized human IgG; It was captured through its Fc on an anti-hFc IgG chip; also called M01 antibody; mAB M01) VH: EVQLLESGGGLVQPGGSLRLSCAASGFTFGSYGMTWVRQAPGKGLEWVSVISGSGGGTYYADSVKGRFTISRDNSKNTLYLQMNSLRAEDTAVYYCAKGPRVVGMDVWGQGTTVTVSS VL: DIQMTQSPSSVSASVGDRVTITCRASQGISSWLAWYQQKPGKAPKLLIYAASSLQSGVPSRFSGSGSGTDYTLTISSLQPEDFATYYCQQVFSYPLTFGGGTKVEIK and stop. 3.24e-05
